System: E. cloacae 260508
Assay: MIC of ceftazidime (CAZ) at fixed concentration of compound (synergy), broth microdilution
Format: cell-based
Details: MIC of ceftazidime with compound fixed at 4 μg/mL; strain 260508 (E. cloacae)
Protocol: Log phase bacterial suspensions were adjusted to a final density of 5×10^5 cfu/mL in cation-adjusted Mueller-Hinton broth (Becton-Dickinson) and added to each well (98 μL). Microplates were incubated for 16-20 h at 35° C. in ambient air. The MIC of the compounds was defined as the lowest concentration of said compounds that prevented bacterial growth as read by visual inspection.
Here, each record is paired with measured MIC combination of CAZ and compounds of the invention at 4 μg/mL data.
attribute measured: MIC combination of CAZ and compounds of the invention at 4 μg/mL

INSERT INTO measurements (molecule, val) VALUES
  ('O=C1N2CC(n3cccn3)=CC(C2)N1OC(F)(F)C(=O)[O-].[Li+] (centres unmarked) [Example 4]', '≤0.25'),
  ('O=C1N2CC(n3nccn3)=CC(C2)N1OS(=O)(=O)O (centres unmarked) [Example 3]', '<0.25'),
  ('O=C1N2CC(n3ccnn3)=C[C@H](C2)N1OS(=O)(=O)O [Example 6]', '<0.25'),
  ('O=C1N2CC(n3ccnn3)=CC(C2)N1OS(=O)(=O)[O-].[Na+] (centres unmarked) [Example 2]', '<0.25'),
  ('O=C1N2CC(n3ccsc3=O)=CC(C2)N1OS(=O)(=O)[O-].[Na+] (centres unmarked) [Example 1]', '<0.25');

====

Biological target: TEM-1 (Escherichia coli, UniProt P62593)
Sequence (P62593 24-286 limits assumed): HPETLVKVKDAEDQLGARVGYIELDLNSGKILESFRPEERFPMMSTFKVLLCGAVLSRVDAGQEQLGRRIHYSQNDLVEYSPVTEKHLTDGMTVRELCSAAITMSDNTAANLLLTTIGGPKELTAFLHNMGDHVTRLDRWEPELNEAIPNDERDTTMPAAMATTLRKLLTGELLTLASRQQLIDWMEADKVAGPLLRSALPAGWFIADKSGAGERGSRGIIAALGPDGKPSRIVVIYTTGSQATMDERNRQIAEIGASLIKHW
Settings: read-out: IC50 β-lactamase TEM-1; class (A); nitrocefin 200 μM, 30-min pre-incubation, enzyme 0.1 nM
pIC50: −log10 of the molar value.
attribute measured: pIC50

INSERT INTO results (compound, val) VALUES
  ('CC(=O)Nc1ccn(C2=CC3CN(C2)C(=O)N3OS(=O)(=O)O)n1.CCN(CC)CC (centres unmarked)', 9.17),
  ('NC(=O)c1nn(C2=CC3CN(C2)C(=O)N3OS(=O)(=O)[O-])cc1F.[Na+] (centres unmarked)', 9.64),
  ('NCCONC(=O)c1cnn(C2=CC3CN(C2)C(=O)N3OS(=O)(=O)[O-])c1.O=C(O)C(F)(F)F.[Na+] (centres unmarked)', 9.43),
  ('NCc1cn(C2=CC3CN(C2)C(=O)N3OS(=O)(=O)[O-])nn1.O=C(O)C(F)(F)F.[Na+] (centres unmarked)', 9.43),
  ('NC(=O)c1cc(F)n(C2=CC3CN(C2)C(=O)N3OS(=O)(=O)[O-])n1.[Na+] (centres unmarked)', 9.48),
  ('NCc1ccn(C2=CC3CN(C2)C(=O)N3OS(=O)(=O)[O-])n1.O=C(O)C(F)(F)F.[Na+] (centres unmarked)', 8.92),
  ('C/C(=N/O)c1cnn(C2=CC3CN(C2)C(=O)N3OS(=O)(=O)[O-])c1.[Na+] (centres unmarked)', 9.68),
  ('O=C1N2CC(n3cc(S(=O)(=O)NCCO)cn3)=CC(C2)N1OS(=O)(=O)[O-].[Na+] (centres unmarked)', 9.47);

====

pIC50: −log10 of the molar value.
Read-out record for CTX-M-15 (Escherichia coli): pIC50
attribute measured: pIC50

INSERT INTO measurements (compound, attribute_measured, val) VALUES
  ('NC(=O)CNCc1cn(C2=CC3CN(C2)C(=O)N3OS(=O)(=O)O)nn1 (centres unmarked) [Example 66]', 'pIC50', 9.27),
  ('NC(=O)Cc1ccn(C2=CC3CN(C2)C(=O)N3OS(=O)(=O)[O-])n1.[Na+] (centres unmarked) [Example 45]', 'pIC50', 8.89),
  ('O=C1N2CC(n3ccnn3)=C[C@H](C2)N1OS(=O)(=O)O [Example 6]', 'pIC50', 9.24),
  ('O=C(NC1CCNCC1)c1ccn(C2=CC3CN(C2)C(=O)N3OS(=O)(=O)O)n1 (centres unmarked) [Example 32]', 'pIC50', 9.00),
  ('O=C1N2CC(n3cc(CO)cn3)=CC(C2)N1OS(=O)(=O)[O-].[Na+] (centres unmarked) [Example 71]', 'pIC50', 9.11),
  ('O=C1N2CC(n3ccc(F)n3)=CC(C2)N1OS(=O)(=O)[O-].[Na+] (centres unmarked) [Example 18]', 'pIC50', 9.19),
  ('O=C(Nc1ccccn1)c1ccn(C2=CC3CN(C2)C(=O)N3OS(=O)(=O)[O-])n1.[Na+] (centres unmarked) [Example 80]', 'pIC50', 9.54),
  ('O=C(Nc1ccn(C2=CC3CN(C2)C(=O)N3OS(=O)(=O)[O-])n1)c1nccs1.[Na+] (centres unmarked) [Example 34]', 'pIC50', 9.04),
  ('O=C1N2CC(n3cc(C(F)(F)F)cn3)=CC(C2)N1OS(=O)(=O)[O-].[Na+] (centres unmarked) [Example 22]', 'pIC50', 9.26),
  ('O=C1N2CC(n3ncnn3)=CC(C2)N1OS(=O)(=O)[O-].[Na+] (centres unmarked) [Example 44]', 'pIC50', 9.07),
  ('NC(=O)CONC(=O)c1ccn(C2=CC3CN(C2)C(=O)N3OS(=O)(=O)[O-])n1.[Na+] (centres unmarked) [Example 52]', 'pIC50', 9.17),
  ('NC(=O)c1ccn(C2=CC3CN(C2)C(=O)N3OS(=O)(=O)[O-])n1.[Na+] (centres unmarked) [Example 19]', 'pIC50', 9.05),
  ('O=C1N2CC(n3cc(CNCCO)nn3)=CC(C2)N1OS(=O)(=O)O (centres unmarked) [Example 67]', 'pIC50', 8.89),
  ('CC(=NOCCN)c1ccn(C2=CC3CN(C2)C(=O)N3OS(=O)(=O)O)n1 (mixture of isomers) [Example 29]', 'pIC50', 9.26),
  ('O=C(CCO)Nc1ccn(C2=CC3CN(C2)C(=O)N3OS(=O)(=O)[O-])n1.[Na+] (centres unmarked) [Example 51]', 'pIC50', 9.55),
  ('O=C1N2CC(n3cc(F)cn3)=CC(C2)N1OS(=O)(=O)[O-].[Na+] (centres unmarked) [Example 14, sulfate]', 'pIC50', 8.74),
  ('NCCONC(=O)c1cn(C2=CC3CN(C2)C(=O)N3OS(=O)(=O)O)nn1 (centres unmarked) [Example 63]', 'pIC50', 9.28);
